Each recorded value in this set is attributed to patent US8637510B2.

melting point values for the compounds below.
Form entry: value (°C) — number only.

Example entries begin here.
{"columns": ["compound", "resultUnits", "reportedValue"],
 "data": [
  ["Cc1cc(-c2sc(N3CCOC[C@@H]3C)nc2CNC(=O)CC(C)C)cc(C)n1", "°C", 151],
  ["Cc1cc(-c2sc(N3C[C@@H](C)O[C@@H](C)C3)nc2CNC(=O)c2ccc(F)c(F)c2)cc(C)n1", "°C", 189],
  ["Cc1cc(-c2sc(N3CCOC(C)C3)nc2CNC(=O)CC2CC2)cc(C)n1 (single isomer, unassigned) [Compound 78]", "°C", 169]
]}

Q) Quick one: melting point for Cc1cc(-c2sc(N3CC(C)OC(C(F)(F)F)C3)nc2CNC(=O)CC2CC2)cc(C)n1 (single isomer, unassigned) [Compound 133] ?
A) 156

* * *

Biological target: human alpha 7-wt nAChR (Homo sapiens, UniProt P36544)
Construct: expressed in transfected cells
Sequence (P36544 23-502): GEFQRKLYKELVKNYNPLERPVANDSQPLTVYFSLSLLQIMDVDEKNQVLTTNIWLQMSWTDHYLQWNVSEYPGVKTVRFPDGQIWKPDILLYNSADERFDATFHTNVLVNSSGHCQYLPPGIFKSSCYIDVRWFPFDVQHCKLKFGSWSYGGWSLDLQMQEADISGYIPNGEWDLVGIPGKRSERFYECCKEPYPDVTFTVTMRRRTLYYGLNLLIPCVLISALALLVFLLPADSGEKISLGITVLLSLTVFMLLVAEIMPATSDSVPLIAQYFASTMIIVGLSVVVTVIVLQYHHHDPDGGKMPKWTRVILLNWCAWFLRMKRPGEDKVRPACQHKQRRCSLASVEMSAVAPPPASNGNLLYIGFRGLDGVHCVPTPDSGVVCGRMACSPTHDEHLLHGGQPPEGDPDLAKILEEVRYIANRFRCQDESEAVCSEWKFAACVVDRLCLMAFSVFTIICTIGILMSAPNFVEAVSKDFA
Assay: Ca2+ flux imaging (FDSS) (Protocol B)
Assay type: cell-based
Conditions: efficacy of 100 μM choline defined as 100% in the absence of a PAM; read-out: a7-PAM-G_[33]_Eff_Curve_FI % Efficacy
assayMetric: Emax (%)
State just the number; it will be interpreted in %.

{"columns": ["molecule", "studySystem", "resultUnits", "Emax"],
 "data": [
  ["Cc1cc(-c2sc(N3C[C@@H](C)O[C@@H](C)C3)nc2CNC(=O)c2c(C)noc2C)cc(C)n1", "human alpha 7-wt nAChR (Homo sapiens, UniProt P36544)", "%", 235],
  ["Cc1cc(-c2sc(N3CCOC(C)C3)nc2CNC(=O)C(C)C)cc(C)n1 (single isomer, unassigned)", "human alpha 7-wt nAChR (Homo sapiens, UniProt P36544)", "%", 611],
  ["Cc1cc(-c2sc(N3C[C@@H](C)O[C@@H](C)C3)nc2CNC(=O)c2nocc2C)cc(C)n1", "human alpha 7-wt nAChR (Homo sapiens, UniProt P36544)", "%", 956],
  ["Cc1ccc(C(=O)NCc2nc(N3C[C@@H](C)O[C@@H](C)C3)sc2-c2cc(C)nc(C)c2)c(C)c1", "human alpha 7-wt nAChR (Homo sapiens, UniProt P36544)", "%", 572]
]}

Q) Give human alpha 7-wt nAChR (Homo sapiens, UniProt P36544) Emax for Cc1cc(-c2sc(N3C[C@@H](C)O[C@@H](C)C3)nc2CNC(=O)CC#N)cc(C)n1
A) 499

* * *

Each record here notes measured melting point.
# unit: °C | format: bare number

{"columns": ["compound", "melting point [°C]"],
 "data": [
  ["Cc1cc(-c2sc(N3CC4CCC(C3)O4)nc2CNC(=O)C(C)C)cc(C)n1", 179],
  ["C[C@@H]1CN(c2nc(CNC(=O)CC3CC3)c(-c3ccnc(C(F)(F)F)c3)s2)C[C@H](C)O1", 198],
  ["Cc1cc(-c2sc(N3C[C@@H](C)O[C@@H](C)C3)nc2CNC(=O)c2cc(C)on2)c(C)cn1", 155]
]}

Continue with the compound presented below.
Q) Give the measured melting point of Cc1cc(-c2sc(N3C[C@@H](C)O[C@@H](C)C3)nc2CNC(=O)c2cnn(C)c2C)cc(C)n1 .
A) 169

* * *

Target: human alpha 7-wt nAChR (Homo sapiens, UniProt P36544)
Construct: expressed in transfected cells
Experiment: Ca2+ flux imaging (FDSS) (Protocol B)
Format: cell-based
Settings: potentiation of 100 μM choline; compounds 0.01 μM to 30 μM; read-out: a7-PAM-G_[33]_pEC50 pEC50 (converted)
Response field label takes class 1 when EC50 is strictly below 1000 nM and class 0 in all other cases.

{"columns": ["compound", "classAssignment"],
 "data": [
  ["Cc1cc(-c2sc(N3C[C@@H](C)O[C@@H](C)C3)nc2CNC(=O)c2csc(C)c2C)cc(C)n1 [Compound 164]", "class 1"],
  ["Cc1cc(-c2sc(N3CCOC(C)(C)C3)nc2CNC(=O)c2ccc(F)cc2C)cc(C)n1 [Compound 157]", "class 1"]
]}

Q) Given Cc1cc(-c2sc(N3CC4CCC(C3)O4)nc2CNC(=O)CC2CC2)cc(C)n1 [Compound 209] , is recorded EC50 strictly lower than 1000 nM?
A) class 0

Q) Follow-up item: Cc1cc(-c2sc(N3C[C@@H](C)O[C@@H](C)C3)nc2CNC(=O)CC2CC2)cc(C)n1 [Compound 1]
A) class 1

Q) Same thing, different compound: Cc1cc(-c2sc(N3C[C@@H](C)O[C@@H](C)C3)nc2CNC(=O)c2ccno2)cc(C)n1 [Compound 149]
A) class 0

Q) Can you check Cc1cc(-c2sc(N3CC4CCC(C3)O4)nc2CNC(=O)c2ccc(F)cc2C)cc(C)n1 [Compound 208] next?
A) class 1

Q) Now consider Cc1cc(F)ccc1C(=O)NCc1nc(N2C[C@@H](C)O[C@@H](C)C2)sc1-c1ccnc(C(F)(F)F)c1 [Compound 198] .
A) class 1

* * *

assayMetric: melting point (°C)
Lab book: enter the figure in °C, no units written.

Some solved cases for reference:
{"columns": ["molecule", "resultUnits", "melting point"],
 "data": [
  ["Cc1cc(-c2sc(N3C[C@@H](C)O[C@@H](C)C3)nc2CNC(=O)C2C(C)(C)C2(C)C)cc(C)n1", "°C", 197],
  ["Cc1cc(-c2sc(N3C[C@@H](C)O[C@@H](C)C3)nc2CNC(=O)c2ccccc2Cl)ccn1", "°C", 155],
  ["Cc1cc(F)ccc1C(=O)NCc1nc(N2CCOCC2)sc1-c1ccncc1", "°C", 191]
]}

Q) Give its melting point value. Item: Cc1cc(-c2sc(N3CCOC(C(F)(F)F)C3)nc2CNC(=O)C(C)C)cc(C)n1 (stereo not shown)
A) 189

* * *

Target: human alpha 7-wt nAChR (Homo sapiens)
Construct: expressed in transfected cells
Test: Ca2+ flux imaging (FDSS) (Protocol B)
Assay type: cell-based
Conditions: potentiation of 100 μM choline; compounds 0.01 μM to 30 μM; read-out: a7-PAM-G_[33]_pEC50 pEC50 (converted)
Binned EC50; ranges: c1 = under 100 nM, c2 = from 100 nM up to 500 nM, c3 = 500 nM and over

{"columns": ["compound", "classAssignment"],
 "data": [
  ["Cc1cc(-c2sc(N3C[C@@H](C)O[C@@H](C)C3)nc2CNC(=O)c2cccc3c2OC(F)(F)O3)cc(C)n1 [Compound 46]", "c2"]
]}

Q) Hello team, could you let me know which band the following compound falls into: Cc1cc(-c2sc(N3CCOC(C)(C)C3)nc2CNC(=O)C(C)C)cc(C)n1 [Compound 183]
A) c3

Q) What do we get for Cc1cc(-c2sc(N3C[C@@H](C)O[C@@H](C)C3)nc2CNC(=O)CC(C)C)cc(C2CC2)n1 [Compound 110] ?
A) c1

Q) One more compound: Cc1cc(-c2sc(N3CC(C)OC(C(F)(F)F)C3)nc2CNC(=O)CC2CC2)cc(C)n1 (racemic) [Compound 205]
A) c1

Q) Repeat for the following compound: Cc1cc(-c2sc(N3C[C@@H](C)O[C@@H](C)C3)nc2CNC(=O)c2cc(C)nn2C)cc(C)n1 [Compound 136]
A) c3

Q) Here is the next compound: Cc1cc(-c2sc(N3C[C@@H](C)O[C@@H](C)C3)nc2CNC(=O)c2cccc(F)c2)cc(C)n1 [Compound 7]
A) c2

Q) Same thing, different compound: Cc1cc(-c2sc(N3CCOC(C(F)(F)F)C3)nc2CNC(=O)CC2CC2)cc(C)n1 (stereo not drawn) [Compound 190]
A) c1

Q) Try the compound Cc1cc(-c2sc(N3C[C@@H](C)O[C@@H](C)C3)nc2CNC(=O)c2ccoc2C)cc(C)n1 [Compound 151]
A) c3

Q) # repeat for Cc1cc(-c2sc(N3C[C@@H](C)O[C@@H](C)C3)nc2CNC(=O)c2ccccc2Cl)cc(C)n1 [Compound 5]
A) c2

Q) Also need Cc1cc(-c2sc(N3C[C@@H](C)O[C@@H](C)C3)nc2CNC(=O)CC(F)(F)F)cc(C)n1 [Compound 168] , thanks.
A) c1

Q) Same read-out for Cc1cc(-c2sc(N3C[C@@H](C)O[C@@H](C)C3)nc2CNC(=O)c2ccc(F)cc2)ccn1 [Compound 94] ?
A) c2

* * *

The entries below are paired with their reported a7-PAM-G_[33]_Eff_Curve_FI % Efficacy.
Biological target: human alpha 7-wt nAChR (Homo sapiens)
Construct: expressed in transfected cells
Assay: Ca2+ flux imaging (FDSS) (Protocol B)
Type: cell-based
Conditions: efficacy of 100 μM choline defined as 100% in the absence of a PAM
Enter your answer as a number in %; do not include the unit.

Consider the worked cases shown below.
{"columns": ["compound", "assayMetric", "reportedValue"],
 "data": [
  ["Cc1cc(-c2sc(N3CC(C)OC(C(F)(F)F)C3)nc2CNC(=O)CC2CC2)cc(C)n1 (racemic) [Compound 205]", "a7-PAM-G_[33]_Eff_Curve_FI % Efficacy", 883],
  ["Cc1cc(-c2sc(N3CC(C)OC(C(F)(F)F)C3)nc2CNC(=O)CC2CC2)cc(C)n1 (racemic) [Compound 202]", "a7-PAM-G_[33]_Eff_Curve_FI % Efficacy", 735],
  ["Cc1cc(-c2sc(N3CCOC(C)C3)nc2CNC(=O)CC2CC2)cc(C)n1 (single isomer, unassigned) [Compound 75]", "a7-PAM-G_[33]_Eff_Curve_FI % Efficacy", 819]
]}

Now, please, on to the next compound.
Q) Item under review: Cc1cc(-c2sc(N3CCOC(C)C3)nc2CNC(=O)CC2CC2)cc(C)n1 (single isomer, unassigned) [Compound 78] . Reported a7-PAM-G_[33]_Eff_Curve_FI % Efficacy?
A) 919
